Ref: patent US10766884B2

Parameter: Ki. Scope: all listed entries.
# ASSAY_SYSTEM: CDK4/Cyclin D1 (Homo sapiens (Human))
# Sequence (P11802 whole entry): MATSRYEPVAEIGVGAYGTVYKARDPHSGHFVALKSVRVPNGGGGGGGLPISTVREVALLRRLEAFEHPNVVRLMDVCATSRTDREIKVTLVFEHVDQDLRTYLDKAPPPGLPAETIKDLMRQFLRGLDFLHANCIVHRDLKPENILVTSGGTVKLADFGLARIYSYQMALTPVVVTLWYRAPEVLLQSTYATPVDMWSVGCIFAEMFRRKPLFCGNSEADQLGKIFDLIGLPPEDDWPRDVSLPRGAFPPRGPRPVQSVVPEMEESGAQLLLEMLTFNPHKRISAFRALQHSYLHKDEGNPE
# Sequence (P24385 whole entry partner): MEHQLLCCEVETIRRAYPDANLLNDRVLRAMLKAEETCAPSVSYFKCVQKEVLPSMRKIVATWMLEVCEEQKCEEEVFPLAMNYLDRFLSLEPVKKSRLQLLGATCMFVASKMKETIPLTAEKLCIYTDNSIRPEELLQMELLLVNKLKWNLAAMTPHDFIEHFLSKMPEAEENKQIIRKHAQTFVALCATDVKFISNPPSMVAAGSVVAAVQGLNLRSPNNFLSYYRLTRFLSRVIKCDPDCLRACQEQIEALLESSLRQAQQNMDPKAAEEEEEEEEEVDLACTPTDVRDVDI
# METHOD_DESCRIPTION: CDK4/Cyclin D1 mobility shift assay
# CONDITION_NOTES: activated CDK4/Cyclin D1, 3.5 mM ATP, Morrison fit; read-out: CDK4D1 Ki
Structures can show the parent of a compound that is named as a salt.

# MOLECULE, Ki [nM]
measured = [
    ("CC(C)n1c(C(N)=O)nc2c(F)cc(-c3nc(N[C@@H]4CCOC[C@H]4O)ncc3Cl)cc21", 8.3),
    ("CC(C)n1c(C(C)(C)O)nc2c(F)cc(-c3nc(N[C@@H]4CCOC[C@H]4O)ncc3F)cc21", 0.7),
    ("CC(C)n1c([C@@H](C)O)nc2c(F)cc(-c3nc(N[C@@H]4CCN(S(C)(=O)=O)C[C@H]4O)ncc3Cl)cc21", 0.2),
    ("CC(C)n1c([C@@H](C)O)nc2c(F)cc(-c3cc(N[C@@H]4CCN(S(C)(=O)=O)C[C@H]4O)ncc3Cl)cc21", 0.6),
    ("CC(N)c1nc2c(F)cc(-c3nc(N[C@@H]4CCN(S(C)(=O)=O)C[C@H]4O)ncc3Cl)cc2n1C(C)C (single isomer, unassigned) [Example A47]", 1),
    ("CC(C)n1c(CN2CC(F)C2)nc2c(F)cc(-c3nc(N[C@@H]4CCOC[C@H]4O)ncc3Cl)cc21", 1.1),
    ("CN(C)CCN1CC[C@@H](Nc2ncc(Cl)c(-c3cc(F)c4ncn(C(C)(C)C)c4c3)n2)[C@H](O)C1 [Example F06, formic acid salt]", 1.5),
    ("CC(C)n1c(CNC2COC2)nc2c(F)cc(-c3nc(N[C@@H]4CCN(S(C)(=O)=O)C[C@H]4O)ncc3Cl)cc21", 0.9),
    ("CN1CCC(Nc2ncc(F)c(-c3cc(F)c4ncn(C(C)(C)C)c4c3)n2)CC1", 4),
    ("CC(C)(C)n1cnc2c(F)cc(-c3nc(N[C@@H]4CCN(CCO)C[C@H]4O)ncc3Cl)cc21 [Example F05, formic acid salt]", 2.1),
    ("CC(C)n1c(C(C)(C)N)nc2c(F)cc(-c3nc(N[C@@H]4CCOC[C@H]4O)ncc3Cl)cc21", 3.1),
    ("CC(C)n1c([C@H](C)O)nc2c(F)cc(-c3cc(N[C@@H]4CCN(S(C)(=O)=O)C[C@H]4O)ncc3Cl)cc21", 0.4),
    ("Cc1nc2c(F)cc(-c3nc(N[C@@H]4CCNC[C@H]4O)ncc3F)cc2n1C(C)C", 3.5),
    ("CC(C)n1cnc2c(F)cc(-c3nc(N[C@@H]4CCN(C(=O)C5COC5)C[C@H]4O)ncc3Cl)cc21", 0.9),
]

----------
Parameter: pIC50. Scope: all listed entries.
# ASSAY_SYSTEM: CDK4 (Homo sapiens (Human))
# METHOD_DESCRIPTION: Phospho-Serine 795 Rb ELISA assay in JEKO-1 cells
# CONDITION_NOTES: overnight treatment, phospho-Rb S795, read-out: CDK4 pRB S795 ELISA JEKO-1 cells IC50
pIC50: −log10 of the molar value.

# COMPOUND, pIC50
records = [
    ("COCC(C)n1c(C)nc2c(F)cc(-c3nc(N[C@@H]4CCN(S(C)(=O)=O)C[C@H]4O)ncc3Cl)cc21 (single isomer, unassigned) [Example A74]", 7.58),
    ("CC(C)(C)n1cnc2c(F)cc(-c3cc(N[C@@H]4CCN(C(=O)C(F)(F)CN)C[C@H]4O)ncc3Cl)cc21 [Example F32]", 6.77),
    ("CC(C)n1c(CC(C)(C)N)nc2c(F)cc(-c3nc(N[C@@H]4CCOC[C@H]4O)ncc3Cl)cc21 [Example A45]", 7.18),
]

----------
# ASSAY_SYSTEM: CDK6 (Homo sapiens (Human), UniProt Q00534)
# METHOD_DESCRIPTION: Phospho-Serine 795 Rb ELISA assay in MV4-11 cells
# CONDITION_NOTES: overnight treatment, phospho-Rb S795, read-out: CDK6 pRB S795 ELISA MV4-11 cells IC50
pIC50: −log10 of the molar value.

# COMPOUND, pIC50
measured = [
    ("C[C@H](O)c1nc2c(F)cc(-c3nc(N[C@@H]4CCOC[C@H]4O)ncc3Cl)cc2n1C(C)(C)C", 7.47),
    ("CC(N)c1nc2c(F)cc(-c3nc(N[C@@H]4CCN(S(C)(=O)=O)C[C@H]4O)ncc3Cl)cc2n1C(C)C (single isomer, unassigned) [Example A47]", 6.43),
    ("CC(C)n1c(CO)nc2c(F)cc(-c3nc(N[C@@H]4CCN(S(C)(=O)=O)C[C@H]4O)ncc3Cl)cc21", 7.01),
    ("CC(C)n1c(CC(N)C(F)F)nc2c(F)cc(-c3nc(N[C@@H]4CCOC[C@H]4O)ncc3Cl)cc21 (single isomer, unassigned) [Example A58]", 6.69),
    ("C[C@@H](O)c1nc2c(F)cc(-c3nc(N[C@@H]4CCOC[C@H]4O)ncc3Cl)cc2n1C(C)(C)C", 6.72),
    ("CC(C)n1c(CC(C)(C)N)nc2c(F)cc(-c3nc(N[C@@H]4CCOC[C@H]4O)ncc3Cl)cc21", 6.33),
    ("CC(C)NCc1nc2c(F)cc(-c3nc(N[C@@H]4CCOC[C@H]4O)ncc3Cl)cc2n1C(C)C", 6.51),
    ("C[C@@H](O)c1nc2c(F)cc(-c3nc(N[C@@H]4CCN(S(C)(=O)=O)C[C@H]4O)ncc3Cl)cc2n1C(C)(C)C", 7.18),
    ("CC(N)c1nc2c(F)cc(-c3nc(N[C@@H]4CCN(S(C)(=O)=O)C[C@H]4O)ncc3Cl)cc2n1C(C)C (single isomer, unassigned) [Example A48]", 7.23),
    ("CC(C)n1c(C(C)(O)C2CC2)nc2c(F)cc(-c3nc(N[C@@H]4CCOC[C@H]4O)ncc3Cl)cc21 (single isomer, unassigned) [Example A24]", 6.78),
    ("CC(C)n1c([C@H](C)N)nc2c(F)cc(-c3nc(N[C@@H]4CCOC[C@H]4O)ncc3Cl)cc21", 6.68),
    ("Cc1nc2ccc(-c3nc(N[C@@H]4CCN(S(C)(=O)=O)C[C@H]4O)ncc3F)cc2n1C(C)(C)C", 7.13),
    ("C[C@@H]1COCc2nc3c(F)cc(-c4nc(N[C@@H]5CCN(S(C)(=O)=O)C[C@H]5O)ncc4Cl)cc3n21", 6.84),
]

----------
# ASSAY_SYSTEM: CDK4/Cyclin D1 (Homo sapiens (Human))
# METHOD_DESCRIPTION: CDK4/Cyclin D1 mobility shift assay
# CONDITION_NOTES: activated CDK4/Cyclin D1, 3.5 mM ATP, Morrison fit; read-out: CDK4D1 Ki
Parameter: Ki. Scope: all listed entries.
MEASURED_ENDPOINT: Ki (nM)

# COMPOUND, DISPLAY_UNIT, REPORTED_VALUE
records = [
    ("CC(C)n1c(CC(N)C(F)F)nc2c(F)cc(-c3nc(N[C@@H]4CCOC[C@H]4O)ncc3Cl)cc21 (single isomer, unassigned) [Example A57]", "nM", 0.4),
    ("CC(C)n1c([C@@H](C)O)nc2c(F)cc(-c3nc(N[C@H]4CCN(S(C)(=O)=O)C[C@@H]4O)ncc3Cl)cc21 [Example F13]", "nM", 11.6),
    ("Cc1nc2c(F)cc(-c3nc(N[C@@H]4CCN(S(C)(=O)=O)C[C@H]4O)ncc3Cl)cc2n1C(C)C [Example A01]", "nM", 0.1),
]

----------
# ASSAY_SYSTEM: CDK6/Cyclin D3 (Homo sapiens (Human), UniProt Q00534)
# Sequence (Q00534 whole entry): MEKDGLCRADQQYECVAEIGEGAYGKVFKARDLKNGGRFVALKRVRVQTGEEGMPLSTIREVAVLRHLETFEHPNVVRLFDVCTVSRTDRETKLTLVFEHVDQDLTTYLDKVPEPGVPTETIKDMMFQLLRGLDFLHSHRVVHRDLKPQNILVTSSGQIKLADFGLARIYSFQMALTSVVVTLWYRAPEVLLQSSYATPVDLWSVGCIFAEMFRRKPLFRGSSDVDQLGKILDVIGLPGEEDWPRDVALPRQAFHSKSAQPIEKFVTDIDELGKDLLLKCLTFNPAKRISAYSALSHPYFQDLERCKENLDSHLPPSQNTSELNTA
# Sequence (P30281 whole entry partner): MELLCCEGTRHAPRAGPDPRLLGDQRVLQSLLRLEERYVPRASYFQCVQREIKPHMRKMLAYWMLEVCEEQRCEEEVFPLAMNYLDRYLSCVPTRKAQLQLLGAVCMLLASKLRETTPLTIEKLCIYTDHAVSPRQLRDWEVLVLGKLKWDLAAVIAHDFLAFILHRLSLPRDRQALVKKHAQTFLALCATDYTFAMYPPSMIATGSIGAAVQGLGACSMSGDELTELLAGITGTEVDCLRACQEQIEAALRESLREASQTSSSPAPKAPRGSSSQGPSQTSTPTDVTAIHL
# METHOD_DESCRIPTION: CDK6/Cyclin D3 mobility shift assay
# CONDITION_NOTES: activated CDK6/Cyclin D3, 3.5 mM ATP, Morrison fit; read-out: CDK6_D3 Ki
pKi: −log10 of the molar value. Structures can show the parent of a compound that is named as a salt.
pKi of 8 or higher: T. Under 8: F.

# COMPOUND, ASSAY_SYSTEM, LABEL_CLASS
rows = [
    ("CC(N)c1nc2c(F)cc(-c3nc(N[C@@H]4CCN(S(C)(=O)=O)C[C@H]4O)ncc3Cl)cc2n1C(C)C (single isomer, unassigned) [Example A48]", "CDK6/Cyclin D3 (Homo sapiens (Human), UniProt Q00534)", "T"),
    ("CC(C)(C)n1cnc2c(F)cc(-c3nc(N[C@@H]4CCN(CCO)C[C@H]4O)ncc3Cl)cc21 [Example F05, formic acid salt]", "CDK6/Cyclin D3 (Homo sapiens (Human), UniProt Q00534)", "F"),
    ("CC(C)(C)n1cnc2c(F)cc(-c3nc(N[C@@H]4CCN(S(C)(=O)=O)C[C@H]4O)ncc3F)cc21 [Example F15]", "CDK6/Cyclin D3 (Homo sapiens (Human), UniProt Q00534)", "T"),
    ("Cc1cc(-c2nc(N[C@@H]3CCN(S(C)(=O)=O)C[C@H]3O)ncc2F)cc2c1nc(C)n2C(C)C [Example A79]", "CDK6/Cyclin D3 (Homo sapiens (Human), UniProt Q00534)", "F"),
    ("CC(C)n1nnc2ccc(-c3nc(N[C@@H]4CCN(S(C)(=O)=O)C[C@H]4O)ncc3Cl)cc21 [Example A84]", "CDK6/Cyclin D3 (Homo sapiens (Human), UniProt Q00534)", "F"),
    ("CC(C)n1cnc2c(F)cc(-c3nc(N[C@@H]4CCN(C(=O)C5(N)CC(F)(F)C5)C[C@H]4O)ncc3Cl)cc21 [Example F29]", "CDK6/Cyclin D3 (Homo sapiens (Human), UniProt Q00534)", "F"),
    ("CNCC(=O)N1CC[C@@H](Nc2ncc(Cl)c(-c3cc(F)c4ncn(C(C)(C)C)c4c3)n2)[C@H](O)C1 [Example F25]", "CDK6/Cyclin D3 (Homo sapiens (Human), UniProt Q00534)", "F"),
    ("CC(C)n1c([C@@H](C)O)nc2c(F)cc(-c3cc(N[C@@H]4CCN(S(C)(=O)=O)C[C@H]4O)ncc3Cl)cc21 [Example D03]", "CDK6/Cyclin D3 (Homo sapiens (Human), UniProt Q00534)", "T"),
    ("CNC(=O)CN1CC[C@@H](Nc2cc(-c3ccc4ncn(C(C)(C)C)c4n3)c(Cl)cn2)[C@H](O)C1 [Example F33]", "CDK6/Cyclin D3 (Homo sapiens (Human), UniProt Q00534)", "T"),
    ("Cc1cnc(N[C@@H]2CCN(S(C)(=O)=O)C[C@H]2O)nc1-c1cc(F)c2nc(C)n(C(C)C)c2c1 [Example A83]", "CDK6/Cyclin D3 (Homo sapiens (Human), UniProt Q00534)", "F"),
    ("Cc1nc2c(F)cc(-c3nc(N[C@@H]4CCN(S(C)(=O)=O)C[C@H]4O)ncc3F)cc2n1C(C)C [Example A02]", "CDK6/Cyclin D3 (Homo sapiens (Human), UniProt Q00534)", "T"),
    ("CC(C)n1c(CN2C[C@@](C)(O)[C@@H]2C)nc2c(F)cc(-c3nc(N[C@@H]4CCOC[C@H]4O)ncc3Cl)cc21 [Example H04]", "CDK6/Cyclin D3 (Homo sapiens (Human), UniProt Q00534)", "F"),
    ("Cc1nc2c(F)cc(-c3nc(N[C@@H]4CCN(S(C)(=O)=O)C[C@H]4O)ncc3Cl)cc2n1C [Example A08]", "CDK6/Cyclin D3 (Homo sapiens (Human), UniProt Q00534)", "T"),
    ("C[C@@H]1COCc2nc3c(F)cc(-c4nc(N[C@@H]5CCN(S(C)(=O)=O)C[C@H]5O)ncc4Cl)cc3n21 [Example A11]", "CDK6/Cyclin D3 (Homo sapiens (Human), UniProt Q00534)", "T"),
]
